# assayed-target: mouse TMEM16A mutant Q637A (Mus musculus, UniProt Q8BHY3, Q637A)
# Construct: expressed in transfected cells; host or cells: HEK293T
# assay-text: Inside-out patch recording of 1PBC block, mutant Q637A
# Assay type: cell-based
# condition-description: Q637A; V 120 mV
pIC50: −log10 of the molar value.
measured-quantity: pIC50

>>> endpoint_result("N#Cc1c(C(F)(F)F)cc(O)n2c1nc1ccccc12 [1PBC]")
6.01

====

# assayed-target: mouse TMEM16A mutant I512A (Mus musculus, UniProt Q8BHY3, I512A)
# Construct: expressed in transfected cells; host or cells: HEK293T
# assay-text: Inside-out patch recording of 1PBC block, mutant I512A
# Format: cell-based
# condition-description: -20 mV; 2 µM Ca2+
measured-quantity: IC50 (µM)

>>> endpoint_result("N#Cc1c(C(F)(F)F)cc(O)n2c1nc1ccccc12 [1PBC]")
37.1

====

# assayed-target: mouse TMEM16A mutant N546A (Mus musculus, UniProt Q8BHY3, N546A)
# Construct: expressed in transfected cells; host or cells: HEK293T
# assay-text: Inside-out patch recording of 1PBC block, mutant N546A
# Assay type: cell-based
# condition-description: 40 mV; 2 µM Ca2+
measured-quantity: IC50 (nM)

>>> endpoint_result("N#Cc1c(C(F)(F)F)cc(O)n2c1nc1ccccc12")
326

====

# assayed-target: mouse TMEM16A mutant Y598A (Mus musculus, UniProt Q8BHY3, Y598A)
# Construct: expressed in transfected cells; host or cells: HEK293T
# Sequence (Q8BHY3 1-960 Y598A): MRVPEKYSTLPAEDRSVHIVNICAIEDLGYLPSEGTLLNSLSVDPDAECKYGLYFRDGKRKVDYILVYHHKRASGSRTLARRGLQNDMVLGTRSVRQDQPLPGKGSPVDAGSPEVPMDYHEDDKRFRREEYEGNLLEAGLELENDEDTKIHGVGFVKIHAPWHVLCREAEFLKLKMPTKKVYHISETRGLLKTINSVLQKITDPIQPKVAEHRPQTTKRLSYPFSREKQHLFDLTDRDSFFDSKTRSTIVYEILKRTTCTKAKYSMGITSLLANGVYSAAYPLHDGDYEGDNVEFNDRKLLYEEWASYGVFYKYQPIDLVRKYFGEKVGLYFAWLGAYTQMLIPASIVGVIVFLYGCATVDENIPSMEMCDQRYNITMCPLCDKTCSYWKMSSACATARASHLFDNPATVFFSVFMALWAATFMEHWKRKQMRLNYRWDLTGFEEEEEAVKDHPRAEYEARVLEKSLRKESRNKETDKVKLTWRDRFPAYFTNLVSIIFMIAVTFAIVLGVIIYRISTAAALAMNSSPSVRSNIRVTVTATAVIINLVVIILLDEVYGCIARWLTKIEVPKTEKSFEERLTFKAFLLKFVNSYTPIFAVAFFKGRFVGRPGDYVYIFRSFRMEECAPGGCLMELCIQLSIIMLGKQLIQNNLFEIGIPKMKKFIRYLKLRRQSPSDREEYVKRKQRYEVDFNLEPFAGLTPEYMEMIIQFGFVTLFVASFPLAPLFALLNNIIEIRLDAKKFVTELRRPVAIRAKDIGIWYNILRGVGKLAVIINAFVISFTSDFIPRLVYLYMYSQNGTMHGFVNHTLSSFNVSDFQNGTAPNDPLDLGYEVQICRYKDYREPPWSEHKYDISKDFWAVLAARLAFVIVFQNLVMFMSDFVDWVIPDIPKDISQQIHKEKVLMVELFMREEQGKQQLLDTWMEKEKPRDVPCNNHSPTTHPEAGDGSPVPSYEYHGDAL
# assay-text: Inside-out patch recording of 1PBC block, mutant Y598A
# Type: cell-based
# condition-description: Y598A; V 100 mV
measured-quantity: IC50

>>> endpoint_result("N#Cc1c(C(F)(F)F)cc(O)n2c1nc1ccccc12")
"3.06 µM"
